target: ROR gamma ligand binding domain (Homo sapiens (Human)); experiment: ROR gamma luciferase reporter assay (GAL4-ROR gamma LBD, HEK293 cells); format: cell-based; details: 48 hours treatment, read-out: RORγ luciferase Reporter assay: IC50 (nM) (in range)
Sequence (P51449 269-508): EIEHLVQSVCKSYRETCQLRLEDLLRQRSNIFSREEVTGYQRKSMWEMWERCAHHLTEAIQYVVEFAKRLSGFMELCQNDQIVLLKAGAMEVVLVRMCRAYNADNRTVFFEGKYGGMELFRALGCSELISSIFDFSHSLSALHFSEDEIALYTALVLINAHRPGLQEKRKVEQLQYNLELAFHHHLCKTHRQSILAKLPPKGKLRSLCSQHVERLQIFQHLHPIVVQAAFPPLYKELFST
# Lookup of reported IC50 keyed by entry

> print(dat)
                                   compound                                       tgt         result
1  CCS(=O)(=O)c1ccc(CC(=O)Nc2nc3c(cc2C)C(=O)C(C)(c2nccn4ccnc24)CC3)cc1 (stereo not shown)  ROR gamma ligand binding domain (Homo sapiens (Human))       > 500 nM
2  CCS(=O)(=O)c1ccc(CC(=O)Nc2cc(C)c3c(n2)CCC(C)(c2ccc(OC)cn2)C3=O)cc1 (stereo not shown)  ROR gamma ligand binding domain (Homo sapiens (Human))  100 to 500 nM
3  CCS(=O)(=O)c1ccc(CC(=O)Nc2ccc3c(n2)CCC(C)(c2cnc(C(C)C)cn2)C3=O)cc1 (stereo not shown)  ROR gamma ligand binding domain (Homo sapiens (Human))  100 to 500 nM

Now turn to the next compound.
Read the entry CCS(=O)(=O)c1ccc(CNC(=O)c2ccc3c(n2)CCC(C)(c2cc(C)nc(C)n2)C3=O)cc1 (single isomer, unassigned) [compound 126] and write its reported IC50.
> 500 nM
